Molecular target: beta 5 subunit (chymotrypsin-like) of the Saccharomyces cerevisiae 20S proteasome (Saccharomyces cerevisiae, UniProt P30656)
Assay: Inhibition of the beta 5 subunit (chymotrypsin-like) of the 20S proteasome
Conditions: S. cerevisiae 20S proteasome, pure compound
pIC50: −log10 of the molar value.
quantity_name: pIC50

C[C@@]12OC(=O)[C@]1([C@@H](O)[C@@H]1C=CCCC1)NC(=O)[C@@H]2CCCl [salinosporamide A, reference compound]	8.85
CCCCCC(=O)N[C@H](C(=O)N[C@@H](CC[S+](C)[O-])C(=O)N[C@@H](CC(C)C)C(=O)[C@@]1(C)CO1)C(C)C (mixture of isomers)	8.28

The origin of these recorded values is patent US9409944B2.
